Experimental system: UniProt P51784
Sequence (P51784 whole entry, the tested form may be a part): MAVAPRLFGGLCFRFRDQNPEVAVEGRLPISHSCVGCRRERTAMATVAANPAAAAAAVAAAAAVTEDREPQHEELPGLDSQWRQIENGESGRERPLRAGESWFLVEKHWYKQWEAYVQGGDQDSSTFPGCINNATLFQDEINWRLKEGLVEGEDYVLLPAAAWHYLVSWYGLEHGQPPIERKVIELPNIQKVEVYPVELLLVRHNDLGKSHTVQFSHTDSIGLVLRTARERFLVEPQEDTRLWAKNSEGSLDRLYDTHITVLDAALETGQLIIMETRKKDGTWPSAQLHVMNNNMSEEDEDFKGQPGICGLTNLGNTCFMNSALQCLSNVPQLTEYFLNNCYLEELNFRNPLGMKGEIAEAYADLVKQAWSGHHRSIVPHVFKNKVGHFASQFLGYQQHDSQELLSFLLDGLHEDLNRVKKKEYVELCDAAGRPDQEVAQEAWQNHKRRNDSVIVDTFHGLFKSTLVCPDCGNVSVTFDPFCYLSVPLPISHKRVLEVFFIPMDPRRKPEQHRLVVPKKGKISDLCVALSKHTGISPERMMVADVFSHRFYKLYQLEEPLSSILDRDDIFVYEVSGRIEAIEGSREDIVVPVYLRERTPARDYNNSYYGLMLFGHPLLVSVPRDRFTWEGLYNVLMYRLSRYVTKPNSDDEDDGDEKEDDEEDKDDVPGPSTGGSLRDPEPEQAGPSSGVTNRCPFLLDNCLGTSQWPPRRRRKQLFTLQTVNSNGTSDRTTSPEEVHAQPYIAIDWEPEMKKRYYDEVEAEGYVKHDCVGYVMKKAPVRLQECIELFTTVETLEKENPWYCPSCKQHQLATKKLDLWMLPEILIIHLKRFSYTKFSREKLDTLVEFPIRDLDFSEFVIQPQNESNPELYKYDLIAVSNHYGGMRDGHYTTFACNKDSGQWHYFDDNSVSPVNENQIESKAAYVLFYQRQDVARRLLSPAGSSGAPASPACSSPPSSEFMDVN
Procedure text: log2 ratio of Biotin-Ahx-Ub-VS probe labelling (fragment/DMSO); higher = less target engagement (more negative = stronger competition), active = hit call of the paper (q ≤ 0.05, log2 ratio ≤ -1)
Protocol conditions: compound concentration: 200 uM; treatment time: 3 h
Classes based on log2 ratio of Biotin-Ahx-Ub-VS probe labelling: LOW (below -0.02), MEDIUM (-0.02 to below 0.2), HIGH (0.2 or more)

[
  {
    "Compound": "O=C(CCl)N1c2ccccc2NC(=O)C12CCCC2",
    "Experimental system": "UniProt P51784",
    "Category label": "HIGH"
  },
  {
    "Compound": "Cc1nc(-c2cccc(NC(=O)CCl)c2)cs1",
    "Experimental system": "UniProt P51784",
    "Category label": "LOW"
  },
  {
    "Compound": "O=C(CCl)N1CCOC2(CCC2)C1",
    "Experimental system": "UniProt P51784",
    "Category label": "HIGH"
  },
  {
    "Compound": "CC1CCc2onc(CNC(=O)CCl)c2C1 (centres undefined)",
    "Experimental system": "UniProt P51784",
    "Category label": "MEDIUM"
  },
  {
    "Compound": "CN1c2ccccc2C(NC(=O)CCl)CS1(=O)=O (centres undefined)",
    "Experimental system": "UniProt P51784",
    "Category label": "MEDIUM"
  },
  {
    "Compound": "Cc1n[nH]c(=O)c2c(NC(=O)CCl)oc(C)c12",
    "Experimental system": "UniProt P51784",
    "Category label": "MEDIUM"
  },
  {
    "Compound": "O=C(CCl)Nc1ccc(F)cc1F",
    "Experimental system": "UniProt P51784",
    "Category label": "MEDIUM"
  },
  {
    "Compound": "CN(Cc1nc2ccccc2[nH]1)C(=O)CCl.Cl",
    "Experimental system": "UniProt P51784",
    "Category label": "MEDIUM"
  },
  {
    "Compound": "CCCn1nccc1NC(=O)CCl",
    "Experimental system": "UniProt P51784",
    "Category label": "LOW"
  }
]
